- system: human FGF-1 (flg) receptor tyrosine kinase (Homo sapiens, UniProt P11362)
- Construct: amplify a fragment of DNA that codes for the intracellular tyrosine kinase domain; made in house; host or cells: SF9 insect cells (baculovirus)
- Sequence (P11362 478-767 limits assumed): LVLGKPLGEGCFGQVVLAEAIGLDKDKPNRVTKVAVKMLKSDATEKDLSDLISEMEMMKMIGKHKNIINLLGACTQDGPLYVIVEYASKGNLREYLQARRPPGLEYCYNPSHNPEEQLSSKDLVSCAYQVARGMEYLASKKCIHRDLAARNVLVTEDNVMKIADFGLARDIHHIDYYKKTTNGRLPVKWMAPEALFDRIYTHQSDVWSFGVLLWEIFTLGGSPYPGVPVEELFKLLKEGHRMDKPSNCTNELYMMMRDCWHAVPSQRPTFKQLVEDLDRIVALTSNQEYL
- protocol.text: FGF receptor tyrosine kinase assay (32P incorporation into glutamate-tyrosine co-polymer)
- Format: biochemical
- condition: read-out: FGFr-TK IC50
Listed compounds paired with reported IC50
property.name: IC50

INSERT INTO results (chem_smiles, reading) VALUES
  ('COc1ccccc1N1CCN(CCCNc2ncc3cc(-c4c(Cl)cccc4Cl)c(=O)n(C)c3n2)CC1', '3610 nM'),
  ('CCOC(=O)c1cccc(Nc2ncc3cc(-c4c(Cl)cccc4Cl)c(=O)n(C)c3n2)c1', '1490 nM'),
  ('Cn1c(=O)c(-c2c(Cl)cccc2Cl)cc2cnc(Nc3ccc(Cl)cc3)nc21', '3010 nM'),
  ('CCn1c(=O)c(-c2c(Cl)cccc2Cl)cc2cnc(Nc3ccc(OC)cc3)nc21', '277 nM'),
  ('CCCn1c(=O)c(-c2c(Cl)cccc2Cl)cc2cnc(N)nc21', '460 nM'),
  ('COc1ccc(Cn2c(=O)c(-c3c(Cl)cccc3Cl)cc3cnc(N)nc32)cc1', '9100 nM'),
  ('Nc1ncc2cc(-c3c(Cl)cccc3Cl)c(=O)n(CC(=O)O)c2n1', '9240 nM'),
  ('CN(C)CCCn1c(=O)c(-c2c(Cl)cccc2Cl)cc2cnc(N)nc21', '1200 nM');
